In this section we review reported Kd values for a set of binders.
system: S100A1
test: FP; direct
# number only, unit nM dropped from output

Field: example entries. Status: answers known.
>>> readout_number("RKLQRELEDATETADAMNREVSSLKNKLRRGDLPFVVPRRMARK [NMIIA (1894-1937) peptide]")
33
>>> readout_number("TRTKIDWNKILS [CapZ (265-276) peptide]")
8900
>>> readout_number("VLQTWLQDLLRRGLVRAAQ [TRPM4 (129-147) peptide]")
380
>>> readout_number("RRLLFYKYVYKR [NCX1 (254-265) peptide]")
2600

Here's the next entry for you.
The recorded Kd for entry NQVRPKLPLLKILHAAGAQ [MDM4 (25-43) peptide] equals 91000
